Target: T1, recombinant human IL-6 (human, UniProt P05231 30-212, labeled with radioactive iodine)
T1 construct: Labeled probe in solution, added to wells that carry the synthetic peptides; also called IL-6 ligand; Interleukin-6
Assay: radioiodinated IL-6 on peptide array
I would appreciate it if you labelled entries fulfilled when Counts/minute bound is 10000 counts/minute or higher, otherwise not fulfilled.

Examples with answers:
query: Item SSFYRLRFELRYRAERSKTF [Peptide C2] with Counts/minute bound of 10000 counts/minute or above?
result: fulfilled

query: Please check the record TPSLTTKAVLLVRKFQNS [Peptide B20] and state if its Counts/minute bound is at or above 10000 counts/minute.
result: fulfilled

query: Is the recorded value of Counts/minute bound equal to or greater than 10000 counts/minute for this binder? AAGSHPSR [Peptide A14]
result: not fulfilled

query: API: above_or_equal(metric=Counts/minute bound, cutoff=10000 counts/minute) for item AAGSHPARWAGMGRRLLLRSV (alanine-scan variant of the domain I 21-mer) [Peptide A47]
result: fulfilled

---
query: Can AAGSHPSRWAGMG [Peptide A9] be said to have Counts/minute bound at or above 10000 counts/minute?
result: not fulfilled

query: Could you please find out whether PRSTPSLTTKA [Peptide B11] has Counts/minute bound that meets 10000 counts/minute or exceeds it?
result: not fulfilled

query: Hi team, for AAGSHPSRWAGMARRLLLRSV (alanine-scan variant of the domain I 21-mer) [Peptide A42] , is the recorded Counts/minute bound at or above 10000 counts/minute?
result: fulfilled

// data source = patent US20040092720A1
